system: Pseudomonas aeruginosa PR1 (clinical isolate with intermediate aminoglycoside resistance); assay: MIC against Pseudomonas aeruginosa clinical isolate PR1; assay type: cell-based; details: Pseudomonas aeruginosa resistant strain PR1
RECORDED_METRIC: MIC PR1 (µg/mL)
Provide the reading as a plain figure in µg/mL.

// solved cases for MIC PR1 follow
{"COMPOUND": "NCC[C@H](O)C(=O)N[C@@H]1C[C@H](N)[C@@H](O[C@H]2O[C@H](CN)[C@@H](O)[C@H](O)[C@H]2O)[C@@H](F)[C@H]1O[C@H]1O[C@H](CNC(=O)[C@H](N)CCCNC(N)=O)[C@@H](O)[C@H](N)[C@H]1O [SXP1212-56″-7]", "TESTED_SYSTEM": "Pseudomonas aeruginosa PR1 (clinical isolate with intermediate aminoglycoside resistance)", "UNIT_SPEC": "µg/mL", "MIC PR1": 16}
{"COMPOUND": "NCCC(O)C(=O)NC1CC(N)C(OC2OC(CN)C(O)CC2N)C(F)C1OC1OC(CNCC2CNC2)C(O)C(N)C1O (centres unmarked) [SXP 2525]", "TESTED_SYSTEM": "Pseudomonas aeruginosa PR1 (clinical isolate with intermediate aminoglycoside resistance)", "UNIT_SPEC": "µg/mL", "MIC PR1": 8}
{"COMPOUND": "NCCC(O)C(=O)NC1CC(N)C(OC2OC(CN)C(O)CC2N)C(F)C1OC1OC(CNCC(O)CN)C(O)C(N)C1O (centres unmarked) [SXP 2524]", "TESTED_SYSTEM": "Pseudomonas aeruginosa PR1 (clinical isolate with intermediate aminoglycoside resistance)", "UNIT_SPEC": "µg/mL", "MIC PR1": 4}
{"COMPOUND": "NC[C@@H]1O[C@H](O[C@H]2[C@@H](O)[C@H](O[C@@H]3[C@@H](O)[C@H](N)C[C@H](N)[C@H]3O[C@H]3O[C@H](CN)[C@@H](O)[C@H](O)[C@H]3N)O[C@@H]2CO)[C@H](N)[C@@H](O)[C@@H]1O [neomycin]", "TESTED_SYSTEM": "Pseudomonas aeruginosa PR1 (clinical isolate with intermediate aminoglycoside resistance)", "UNIT_SPEC": "µg/mL", "MIC PR1": 32}
{"COMPOUND": "NC[C@H]1O[C@H](O[C@H]2[C@H](O)[C@@H](O[C@H]3O[C@H](CO)[C@@H](O)[C@H](N)[C@H]3O)[C@H](N)C[C@@H]2N)[C@H](N)[C@@H](O)[C@@H]1O [kanamycin B]", "TESTED_SYSTEM": "Pseudomonas aeruginosa PR1 (clinical isolate with intermediate aminoglycoside resistance)", "UNIT_SPEC": "µg/mL", "MIC PR1": 64}
{"COMPOUND": "NCCC(O)C(=O)NC1CC(N)C(OC2OC(CN)C(O)CC2N)C(F)C1OC1OC(CNC2CNC2)C(O)C(N)C1O (centres unmarked) [SXP 2554]", "TESTED_SYSTEM": "Pseudomonas aeruginosa PR1 (clinical isolate with intermediate aminoglycoside resistance)", "UNIT_SPEC": "µg/mL", "MIC PR1": 2}
{"COMPOUND": "CN[C@@H]1[C@@H](O)[C@@H](O[C@@H]2[C@@H](O)[C@H](O[C@H]3OC(CN)=CC[C@H]3N)[C@@H](N)C[C@H]2N)OC[C@]1(C)O [sisomycin]", "TESTED_SYSTEM": "Pseudomonas aeruginosa PR1 (clinical isolate with intermediate aminoglycoside resistance)", "UNIT_SPEC": "µg/mL", "MIC PR1": 4}

Read the next record carefully.
Which measured MIC PR1 belongs to CC(C)[C@H](N)C(=O)NC[C@H]1O[C@H](O[C@@H]2[C@H](F)[C@H](O[C@H]3O[C@H](CN)[C@@H](O)[C@H](O)[C@H]3O)[C@@H](N)C[C@H]2NC(=O)[C@@H](O)CCN)[C@H](O)[C@@H](N)[C@@H]1O [SXP1212-56″-8] , tested on Pseudomonas aeruginosa PR1 (clinical isolate with intermediate aminoglycoside resistance)?
8

This collection of values is drawn from patent US8586552B2.
